assay: Antagonist activity against human CCR5 assessed as inhibition of HIV1 gp120-induced cell-cell fusion between human HeLa P4/R5 cells and CHO-tat10 cells expressing HIV-1JRFL viral envolop protein after 20 hrs by beta-galactosidase reporter gene assay
Here the recorded pIC50 is given for each entry.
Scale explanation: pIC50 corresponds to minus log10 of a concentration expressed in moles per litre.

>>> df
                                   compound  recorded_measurement
0  COc1ccc(N(Cc2cnccc2C)C2CCN([C@H](C)CCNC(=O)c3c(C)cc(F)nc3C)CC2)cc1                  9.52
1  Cc1ccncc1CN(c1ccccc1)C1CCN([C@H](C)CCNC(=O)c2c(C)cc(C#N)nc2C)CC1                  8.15
2  COc1ccc(N(Cc2cnccc2C)C2CCN([C@@H](C)CCNC(=O)c3c(C)cc(Cl)nc3C)CC2)cc1                  7.40
3  COc1ccc(N(Cc2cnccc2C)C2CCN([C@H](C)CCNC(=O)c3c(C)cc(C#N)nc3C)CC2)cc1                  9.52
4  CC(CCNC(=O)c1c(Cl)cncc1Cl)N1CCC(N(Cc2ccccc2)c2ccc(C#N)cc2)CC1 (stereo not drawn)                  7.72
5  Cc1ccncc1CN(c1ccc(OCC(N)=O)cc1)C1CCN([C@H](C)CCNC(=O)c2c(C)cc(C#N)nc2C)CC1                  9.01

// sample `COCCOc1ccc(N(Cc2cnccc2C)C2CCN([C@H](C)CCNC(=O)c3c(C)cc(C#N)nc3C)CC2)cc1` , its pIC50 was 9.10

// sample `COc1ccc(N(Cc2cnccc2C)C2CCN([C@H](C)CCNC(=O)c3c(C)cc(Cl)nc3C)CC2)cc1` , its pIC50 was 9.70

// sample `COc1ccc(N(Cc2cccc(C#N)n2)C2CCN([C@H](C)CCNC(=O)c3c(C)cc(C#N)nc3C)CC2)cc1` , its pIC50 was 9.52
